Target: T1, HsLARP6 La module (70-300) (Homo sapiens, UniProt Q9BRS8 70-300)
T1 sequence: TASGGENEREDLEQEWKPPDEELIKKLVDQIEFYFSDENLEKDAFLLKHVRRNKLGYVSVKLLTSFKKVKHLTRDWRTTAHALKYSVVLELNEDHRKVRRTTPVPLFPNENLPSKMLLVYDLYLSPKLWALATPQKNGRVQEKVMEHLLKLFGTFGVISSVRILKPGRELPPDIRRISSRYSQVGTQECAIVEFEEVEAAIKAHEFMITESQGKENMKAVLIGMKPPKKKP
Test: ITC; ITC: 20 mM Tris pH 7.25, 100 mM KCl, 5 mM MgCl2, 1 mM DTT, 298 K; protein titrated into RNA
Conditions: protein: recombinant; tags: N-terminal His6, TEV-cleaved for initial ITC; single strand
PROPERTY_LABEL: pKd
As a rule, pKd stands for the negative log10 of the concentration, concentration in M.

stdin: Indicate its recorded pKd; the binder in question is UUUU (ssRNA) [UUUUOH RNA]
stdout: 5.22
